System: Streptococcus pyogenes SSI-9
Test: Antibacterial activity assay of bead-derived peptides (three concentrations)
Type: cell-based
Set-up: key: +++: inhibition by the 640-fold diluted peptide solution; ++: inhibition by the 160-fold diluted solution; +: inhibition by the 40-fold diluted solution; -: no inhibition
Details: S. pyogenes, bead-derived peptide solution, three concentrations
Where a SMILES comes first, the peptide text is derived from it. [ ]: non-standard residue; d: D form. The star is where a group is joined. NHCH2CH2OH = OCCN*; For = O=C*
experimental readout: antibacterial activity

Prompt line: Supply measured antibacterial activity of CC(C)C[C@@H](NC(=O)[C@H](C)NC(=O)CNC(=O)[C@@H](NC=O)C(C)C)C(=O)N[C@@H](C)C(=O)N[C@@H](C(=O)N[C@H](C(=O)N[C@@H](C(=O)N[C@@H](Cc1c[nH]c2ccccc12)C(=O)N[C@H](CC(C)C)C(=O)N[C@@H](Cc1c[nH]c2ccccc12)C(=O)N[C@H](CC(C)C)C(=O)N[C@@H](Cc1c[nH]c2ccccc12)C(=O)N[C@@H](C(=O)N[C@@H](Cc1c[nH]c2ccccc12)C(=O)NCCO)C(C)C)[C@H](C)O)C(C)C)C(C)C [compound 6702] (For-VGA[dL]A[dV]V[dT]W[dL]W[dL]W[dV]W-NHCH2CH2OH) in your reply.
Response line: +
